# target_system: Cannabinoid receptor 1 (Homo sapiens, UniProt P21554); further: in other assays of this panel Not Active means under 50% inhibition at 10 µM
# Sequence (P21554 whole entry): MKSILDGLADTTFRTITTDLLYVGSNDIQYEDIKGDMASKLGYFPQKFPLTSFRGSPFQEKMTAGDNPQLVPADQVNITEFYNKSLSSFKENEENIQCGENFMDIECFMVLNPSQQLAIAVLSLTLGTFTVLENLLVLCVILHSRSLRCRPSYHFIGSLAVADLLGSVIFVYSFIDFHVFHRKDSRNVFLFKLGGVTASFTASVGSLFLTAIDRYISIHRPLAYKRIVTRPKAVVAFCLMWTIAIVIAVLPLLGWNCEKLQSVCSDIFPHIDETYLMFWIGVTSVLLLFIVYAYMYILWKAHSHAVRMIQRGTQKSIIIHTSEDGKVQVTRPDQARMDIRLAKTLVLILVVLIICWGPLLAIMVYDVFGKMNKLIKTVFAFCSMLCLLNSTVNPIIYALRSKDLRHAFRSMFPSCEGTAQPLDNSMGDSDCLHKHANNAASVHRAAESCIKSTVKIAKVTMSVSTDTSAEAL
# Assay type: cell membranes, Chem-1, Membrane
# test_settings: chem-1
value_kind: IC50

substance	IC50
CARBOXYMETHYLCELLULOSE	Not Active
CHROMIC CHLORIDE	Not Active
COPPER(II) OXIDE	Not Active
POVIDONE	Not Active

Then there is this substance:
So, LEAD(IV) ACETATE ? Its IC50 was Not Active

----------
# target_system: Cytochrome P450 2C9 (Homo sapiens, UniProt P11712); further: in other assays of this panel Not Active means under 50% inhibition at 10 µM
# Sequence (P11712 whole entry): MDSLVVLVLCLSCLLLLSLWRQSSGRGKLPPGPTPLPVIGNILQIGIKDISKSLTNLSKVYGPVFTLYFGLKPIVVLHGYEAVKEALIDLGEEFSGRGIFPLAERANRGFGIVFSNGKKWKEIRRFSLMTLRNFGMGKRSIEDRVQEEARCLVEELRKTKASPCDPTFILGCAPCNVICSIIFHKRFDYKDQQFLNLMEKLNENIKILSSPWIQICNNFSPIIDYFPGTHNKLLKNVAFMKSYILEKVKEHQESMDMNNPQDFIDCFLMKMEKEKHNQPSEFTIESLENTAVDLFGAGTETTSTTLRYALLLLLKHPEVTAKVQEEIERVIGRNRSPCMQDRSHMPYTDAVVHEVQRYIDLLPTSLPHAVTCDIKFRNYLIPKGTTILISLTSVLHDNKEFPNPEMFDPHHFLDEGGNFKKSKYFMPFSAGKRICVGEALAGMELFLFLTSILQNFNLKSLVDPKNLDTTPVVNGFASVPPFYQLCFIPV
# test_settings: bti-tn-5b1-4
value_kind: IC50

compound	IC50
Oc1ncnc2[nH]ncc12	Not Active
CC(C)(C)NC[C@H](O)COc1cccc2c1CCCC2=O	Not Active
CN(Cc1cc(Br)cc(Br)c1N)C1CCCCC1	Not Active
CCN1CCCC1CNC(=O)c1cc(S(N)(=O)=O)ccc1OC (stereo unspecified) [SULPIRIDE]	Not Active
Cc1[nH]c(=O)c(C#N)cc1-c1ccncc1	Not Active

Entry O=C(NCCN1CCOCC1)c1ccc(Cl)cc1 [MOCLOBEMIDE] , IC50 reported as Not Active

# IC50 (compound: "COC(=O)Nc1nc2ccc(C(=O)c3ccccc3)cc2[nH]1" ) is Not Active

Memo: CC1(COc2ccc(CC3SC(=O)NC3=O)cc2)CCCCC1 (stereo unspecified) , reported IC50: Not Active

----------
# target_system: Muscarinic acetylcholine receptor M5 (Homo sapiens); further: in other assays of this panel Not Active means under 50% inhibition at 10 µM
# Sequence (P08912 whole entry): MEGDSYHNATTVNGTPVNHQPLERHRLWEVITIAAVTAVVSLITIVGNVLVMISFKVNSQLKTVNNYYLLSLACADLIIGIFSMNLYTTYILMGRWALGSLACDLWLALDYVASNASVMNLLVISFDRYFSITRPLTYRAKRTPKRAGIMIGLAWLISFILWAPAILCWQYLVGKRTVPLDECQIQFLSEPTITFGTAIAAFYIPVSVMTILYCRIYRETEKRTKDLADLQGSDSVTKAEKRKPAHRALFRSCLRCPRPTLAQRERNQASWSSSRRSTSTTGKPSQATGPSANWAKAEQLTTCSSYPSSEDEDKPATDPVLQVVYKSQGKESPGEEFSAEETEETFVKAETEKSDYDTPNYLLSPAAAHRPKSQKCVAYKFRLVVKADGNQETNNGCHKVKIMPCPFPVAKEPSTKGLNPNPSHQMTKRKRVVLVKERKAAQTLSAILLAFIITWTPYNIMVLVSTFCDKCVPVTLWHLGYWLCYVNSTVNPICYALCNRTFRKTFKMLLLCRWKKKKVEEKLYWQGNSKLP
# Format: cell membranes, CHO-K1, Membrane
# test_settings: read-out: Ki
Entries and their Ki
# unit: nM | format: bare number

compound	Ki, nM
CC(CN1c2ccccc2Sc2ccccc21)N(C)C (stereo not drawn)	3.31
Cc1cc(C(C)(C)C)c(O)c(C)c1CC1=NCCN1	957

// next entry
Given item "CNCCCC12CCC(c3ccccc31)c1ccccc12" , the value recorded as its Ki is 115

----------
Record: pKi reported on Androgen receptor (Rattus norvegicus).
Sequence (P15207 whole entry S389L): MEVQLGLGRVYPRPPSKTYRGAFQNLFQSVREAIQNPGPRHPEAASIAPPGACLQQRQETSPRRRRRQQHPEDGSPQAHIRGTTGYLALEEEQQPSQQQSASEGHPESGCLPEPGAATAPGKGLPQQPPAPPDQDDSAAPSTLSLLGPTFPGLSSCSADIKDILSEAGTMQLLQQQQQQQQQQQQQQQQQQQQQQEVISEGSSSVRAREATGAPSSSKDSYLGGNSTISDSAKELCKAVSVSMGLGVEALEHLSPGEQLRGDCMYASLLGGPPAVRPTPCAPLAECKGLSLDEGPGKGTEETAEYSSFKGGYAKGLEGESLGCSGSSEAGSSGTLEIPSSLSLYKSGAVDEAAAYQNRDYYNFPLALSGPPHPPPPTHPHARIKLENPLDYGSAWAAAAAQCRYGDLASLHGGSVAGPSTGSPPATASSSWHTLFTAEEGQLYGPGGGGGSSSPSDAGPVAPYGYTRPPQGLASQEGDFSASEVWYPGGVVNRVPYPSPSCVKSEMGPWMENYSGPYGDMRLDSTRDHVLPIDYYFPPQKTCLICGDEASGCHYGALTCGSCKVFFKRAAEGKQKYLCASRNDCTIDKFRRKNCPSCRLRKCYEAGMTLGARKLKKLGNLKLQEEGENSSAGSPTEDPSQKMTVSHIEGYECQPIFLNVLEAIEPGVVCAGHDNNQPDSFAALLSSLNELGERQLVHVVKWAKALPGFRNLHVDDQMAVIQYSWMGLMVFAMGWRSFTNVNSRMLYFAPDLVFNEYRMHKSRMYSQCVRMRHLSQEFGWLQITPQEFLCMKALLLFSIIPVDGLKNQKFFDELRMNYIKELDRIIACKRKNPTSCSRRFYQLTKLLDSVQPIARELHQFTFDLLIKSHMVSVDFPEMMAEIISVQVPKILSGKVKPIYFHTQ
pKi (log units): -log10 of the concentration in mol/L.

molecule	pKi
CCOC(=O)C1=C(C)NC(C)=C(C(=O)OCC)C1c1ccccc1/C=C/C(=O)OC(C)(C)C	5.58

Looking up "CC(C)(c1ccc(O)cc1)c1ccc(O)cc1" , I found its pKi recorded as 4.65

----------
# assay_protocol: DRUGMATRIX: Calcium Channel Type L, Dihydropyridine radioligand binding (ligand: [3H] Nitrendipine)
# Format: cell membranes, Rattus norvegicus, Wistar, Cerebral cortex, Membrane
# test_settings: Not Active = under 50% inhibition at 10 µM; read-out: IC50
A collection of molecules and their measured IC50
Please state the value followed by its unit.

molecule	IC50
CC[C@H](C)[C@@H](CO[C@@H](Cc1ccccc1)C(=O)N[C@@H](CCS(C)(=O)=O)C(=O)OC(C)C)NC[C@@H](N)CS	4.5 µM

Sample CCOC(=O)C1=C(C)NC(C)=C(C(=O)OCC)C1c1ccccc1/C=C/C(=O)OC(C)(C)C [LACIDIPINE] ; IC50 observed: 0.0004 µM

----------
# target_system: C-C chemokine receptor type 2 (Homo sapiens); further: in other assays of this panel Not Active means under 50% inhibition at 10 µM
# Sequence (P41597 whole entry): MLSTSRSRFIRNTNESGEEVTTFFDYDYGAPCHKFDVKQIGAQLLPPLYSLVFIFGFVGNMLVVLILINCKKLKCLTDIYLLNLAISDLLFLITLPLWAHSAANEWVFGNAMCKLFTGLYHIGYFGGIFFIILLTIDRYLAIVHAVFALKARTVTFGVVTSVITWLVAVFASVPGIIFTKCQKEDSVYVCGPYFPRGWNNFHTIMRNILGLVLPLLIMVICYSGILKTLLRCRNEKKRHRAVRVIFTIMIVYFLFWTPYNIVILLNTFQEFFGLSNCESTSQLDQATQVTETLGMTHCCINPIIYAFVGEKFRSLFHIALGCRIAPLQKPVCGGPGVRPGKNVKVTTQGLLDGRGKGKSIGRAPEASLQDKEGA
# Type: cell membranes, CHO-K1, Membrane
# test_settings: read-out: Ki
value_kind: Ki (nM)
Quick reminder: number only, in nM, skip the unit.

compound	Ki / nM
CCN(CC)C(=S)SSC(=S)N(CC)CC	954

Turning now to a further record.
Fill in: C-C chemokine receptor type 2 (Homo sapiens) Ki for c1ccc2sc(SSc3nc4ccccc4s3)nc2c1 [BENZOTHIAZYL DISULFIDE] = 929

----------
# target_system: Aldo-keto reductase family 1 member B1 (Rattus norvegicus); further: in other assays of this panel Not Active means under 50% inhibition at 10 µM;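 further: inhibition of aldose reductase enzyme activity, measured with DL-glyceraldehyde as the substrate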
# assay_protocol: biochemical
# Format: tissue-based, Lens of camera-type eye

molecule	IC50
CCN1CCN(C(=O)N[C@@H](C(=O)N[C@@H]2C(=O)N3[C@@H]2SC(C)(C)[C@@H]3C(=O)O)c2ccccc2)C(=O)C1=O	Not Active
CC(C)Cc1ccc([C@H](C)C(=O)O)cc1	Not Active
c1ccc2c(c1)Nc1ccccc1S2	Not Active
COC(=O)Nc1nc2ccc(Sc3ccccc3)cc2[nH]1	Not Active

----------
# target_system: Muscarinic acetylcholine receptor M2 (Homo sapiens); further: in other assays of this panel Not Active means under 50% inhibition at 10 µM
# Sequence (P08172 whole entry): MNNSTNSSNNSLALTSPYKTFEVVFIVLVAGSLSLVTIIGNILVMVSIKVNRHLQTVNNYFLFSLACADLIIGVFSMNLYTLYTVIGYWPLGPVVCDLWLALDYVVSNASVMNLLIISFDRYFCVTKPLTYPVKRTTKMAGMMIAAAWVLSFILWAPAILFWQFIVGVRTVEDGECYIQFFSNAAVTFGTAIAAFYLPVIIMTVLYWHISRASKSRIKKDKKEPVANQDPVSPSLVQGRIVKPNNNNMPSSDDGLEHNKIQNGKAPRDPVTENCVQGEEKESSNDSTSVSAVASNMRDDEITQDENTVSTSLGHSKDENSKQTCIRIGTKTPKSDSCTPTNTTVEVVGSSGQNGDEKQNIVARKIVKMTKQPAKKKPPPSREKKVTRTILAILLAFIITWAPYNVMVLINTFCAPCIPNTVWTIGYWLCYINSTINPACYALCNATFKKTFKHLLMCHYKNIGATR
# Assay type: cell membranes, CHO-K1, Membrane
# test_settings: cho-k1
value_kind: IC50

Below, 4 compounds whose answers are already recorded.
compound	value_kind	observed_result
COC(=O)Nc1nc2ccc(Sc3ccccc3)cc2[nH]1	IC50	Not Active
C#C[C@]1(O)CC[C@H]2[C@@H]3CCC4=CC(=O)CC[C@@H]4[C@H]3CC[C@@]21C	IC50	Not Active
NS(=O)(=O)c1cc(C(=O)O)c(NCc2ccco2)cc1Cl [FUROSEMIDE]	IC50	Not Active
CC(Cl)(Cl)Cl	IC50	Not Active

As a next step, examine the compound that follows.
Item: "COC(=O)C[C@](O)(CCC(C)(C)O)C(=O)O[C@@H]1C(OC)=C[C@]23CCCN2CCc2cc4c(cc2[C@H]13)OCO4" | IC50: Not Active

----------
# target_system: Sodium-dependent noradrenaline transporter (Homo sapiens, UniProt P23975)
# Sequence (P23975 whole entry): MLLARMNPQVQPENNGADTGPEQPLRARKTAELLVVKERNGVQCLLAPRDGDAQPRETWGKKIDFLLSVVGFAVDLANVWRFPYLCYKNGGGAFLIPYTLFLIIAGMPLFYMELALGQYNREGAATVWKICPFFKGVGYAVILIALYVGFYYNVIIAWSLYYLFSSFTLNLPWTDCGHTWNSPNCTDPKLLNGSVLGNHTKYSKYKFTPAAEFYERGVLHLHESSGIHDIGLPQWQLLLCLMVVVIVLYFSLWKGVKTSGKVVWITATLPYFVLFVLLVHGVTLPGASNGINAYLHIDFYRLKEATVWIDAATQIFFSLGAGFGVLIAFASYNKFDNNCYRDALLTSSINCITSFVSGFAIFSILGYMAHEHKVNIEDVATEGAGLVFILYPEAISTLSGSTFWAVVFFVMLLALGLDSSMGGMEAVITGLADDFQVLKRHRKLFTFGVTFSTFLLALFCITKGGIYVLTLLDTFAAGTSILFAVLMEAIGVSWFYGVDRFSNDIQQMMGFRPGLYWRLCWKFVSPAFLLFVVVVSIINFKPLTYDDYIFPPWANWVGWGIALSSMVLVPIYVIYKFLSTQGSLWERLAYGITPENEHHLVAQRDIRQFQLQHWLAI
# assay_protocol: DRUGMATRIX: Norepinephrine Transporter radioligand binding (ligand: [125I] RTI-55)
# Type: cell membranes, MDCK, Membrane
# test_settings: mdck; Not Active = under 50% inhibition at 10 µM
value_kind: IC50

molecule	value_kind	observed_result
Cc1ccc(Cl)c(Nc2ccccc2C(=O)O)c1Cl	IC50	Not Active
C[N+](C)(C)CCOC(N)=O.[Cl-]	IC50	Not Active
OC[C@H]1O[C@@H]2O[C@H]3[C@H](O)[C@@H](O)[C@@H](O[C@H]4[C@H](O)[C@@H](O)[C@@H](O[C@H]5[C@H](O)[C@@H](O)[C@@H](O[C@H]6[C@H](O)[C@@H](O)[C@@H](O[C@H]7[C@H](O)[C@@H](O)[C@@H](O[C@H]1[C@H](O)[C@H]2O)O[C@@H]7CO)O[C@@H]6CO)O[C@@H]5CO)O[C@@H]4CO)O[C@@H]3CO	IC50	Not Active
C1CCN2C[C@@H]3C[C@@H](CN4CCCC[C@@H]34)[C@H]2C1	IC50	Not Active

Entry O=C(Nc1ccc(Cl)c(Cl)c1)c1cc(Cl)cc(Cl)c1O [3,3',4',5-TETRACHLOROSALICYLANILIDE] , tested on Sodium-dependent noradrenaline transporter (Homo sapiens, UniProt P23975), has a reported IC50 of Not Active

----------
# assay_protocol: DRUGMATRIX: Glutamate, Kainate radioligand binding (ligand: [3H] Kainic acid)
# Type: cell membranes, Rattus norvegicus, Wistar, Brain, Membrane
# test_settings: Not Active = under 50% inhibition at 10 µM
value_kind: IC50

These solved cases illustrate the format of a correct answer.
compound	observed_result
O=C1CC[C@@]2(O)[C@H]3Cc4ccc(O)c5c4[C@@]2(CCN3CC2CC2)[C@H]1O5 [NALTREXONE]	Not Active
C[N+](C)(C)CCOP(=O)([O-])OC[C@H](O)CO	Not Active
CC12CCC(CC1=O)C2(C)C (stereo not given)	Not Active
CCOc1cc(N)c(Cl)cc1C(=O)NCC1CN(Cc2ccc(F)cc2)CCO1 (stereo not given) [MOSAPRIDE]	Not Active
CC(Cl)(Cl)Cl	Not Active

The compound identified as Cc1ccc(S(=O)(=O)NC(=O)NN2CCCCCC2)cc1 [TOLAZAMIDE] registered its IC50 at Not Active

So for "c1ccc2c(c1)Nc1ccccc1S2" , the logged IC50 turned out to be Not Active

COc1cc(/C=C/C(=O)O)ccc1O [FERULATE] has a reported IC50 of Not Active

Sample "C=CCN1CC[C@]23c4c5ccc(O)c4O[C@H]2/C(=N/N=C2\CC[C@@]4(O)[C@H]6Cc7ccc(O)c8c7[C@@]4(CCN6CC=C)[C@H]2O8)CC[C@@]3(O)[C@H]1C5" ; IC50 observed: Not Active

Reported IC50 of "CCN(CC)C(=S)SSC(=S)N(CC)CC" : Not Active

Input "OC[C@@H](O)[C@@H](O)[C@H](O)[C@H](O)CO" . Output IC50: Not Active

// IC50 value for "CCN1CCN(C(=O)N[C@@H](C(=O)N[C@@H]2C(=O)N3[C@@H]2SC(C)(C)[C@@H]3C(=O)O)c2ccccc2)C(=O)C1=O" : Not Active

----------
# assay_protocol: DRUGMATRIX: Interleukin IL-1 radioligand binding (ligand: [125I] interleukin 1beta)
# Type: cell membranes, Membrane
# test_settings: nih3t3; Not Active = under 50% inhibition at 10 µM
value_kind: IC50

molecule	IC50
CCC(C)(C)C(=O)O[C@H]1C[C@@H](C)C=C2C=C[C@H](C)[C@H](CC[C@@H]3C[C@@H](O)CC(=O)O3)[C@H]21 [SIMVASTATIN]	Not Active
C[C@H]1C[C@H]2[C@@H]3CCC4=CC(=O)C=C[C@]4(C)[C@@]3(F)[C@@H](O)C[C@]2(C)[C@@]1(O)C(=O)CO [BETAMETHASONE]	Not Active
CC(=O)Nc1ccc2c(c1)Cc1ccccc1-2 [2-ACETYLAMINOFLUORENE]	Not Active
CCOC(=O)C1=C(C)NC(C)=C(C(=O)OCC)C1c1ccccc1/C=C/C(=O)OC(C)(C)C [LACIDIPINE]	Not Active
CC(C)Cc1ccc([C@H](C)C(=O)O)cc1 [DEXIBUPROFEN]	Not Active

Lab book: IC50 of C=CCc1ccc2c(c1)OCO2 [SAFROLE] noted as Not Active

Looking up COc1ccccc1OCCNCC(O)COc1cccc2[nH]c3ccccc3c12 (stereo not drawn) [CARVEDILOL] , I found its IC50 recorded as Not Active

Measured IC50 of O=C(O)c1cc(/N=N/c2ccc(S(=O)(=O)Nc3ccccn3)cc2)ccc1O [SULFASALAZINE] : Not Active
